# Assay Explanation: clinical
# Stated Conditions: human, plasma, 0.1 mg/kg
# Description: AUC (0 to t) in human at 0.1 mg/kg
Quantity: AUC(0-t) (ng·h/mL)
The reply should contain only the number, in ng·h/mL.

Recorded AUC(0-t) for `C[C@@H](c1ccccn1)c1c(CCN(C)C)sc2ccccc12` , please? 2.8

====

# Assay Explanation: clinical
# Stated Conditions: human, in vivo, po, 0.1 mg/kg
# Description: Half life in human at 0.1 mg/kg, po and iv administered as single dose
Quantity: half-life (h)
Use h as the unit, but write only the number.

I have this molecule here, `C[C@@H](c1ccccn1)c1c(CCN(C)C)sc2ccccc12` , and I need its recorded half-life. 6.8

====

# Assay Explanation: Systemic clearance in human at […]
# Assay type: ADME, organism-based
# Stated Conditions: in vivo
Quantity: clearance

Requested field: clearance. Item: `C[C@@H](c1ccccn1)c1c(CCN(C)C)sc2ccccc12` 3.8 mL/min/kg
